Attribute: growth at 10 µM
Tested on: SK-BR-3
Test: Antiproliferative activity against human SK-BR-3 cells assessed as growth rate at 10 uM incubated for 48 hrs by MTT assay relative to control
Type: functional
Details: read-out: Activity
// return numeric value only (unit: %, not printed)

Record CCCCC(O)Cn1nc(Nc2ccccc2C)c(C(=O)OCC)c1N (stereo not given) , field growth at 10 µM: 110

Record CCCCC(O)Cn1nc(Nc2ccccc2)c(C(=O)OCC)c1N (stereo not given) , field growth at 10 µM: 109

Record CCCCC(O)Cn1nc(Nc2cccc(C)c2)c(C(=O)OCC)c1N (stereo not given) , field growth at 10 µM: 107

Record CCOC(=O)c1c(Nc2ccc(C)cc2)nn(CC(OC(=O)Nc2cccc(C(F)(F)F)c2)c2ccccc2)c1N (stereo not given) , field growth at 10 µM: 124

Record CCOC(=O)c1c(Nc2ccc(C)cc2)nn(CC(O)c2ccccc2)c1N (stereo not given) , field growth at 10 µM: 112

Record CCCCC(Cn1nc(Nc2ccccc2)c(C(=O)OCC)c1N)OC(=O)Nc1cccc(C(F)(F)F)c1 (stereo not given) , field growth at 10 µM: 112

Record CCCCC(Cn1nc(Nc2ccccc2Cl)c(C(=O)OCC)c1N)OC(=O)Nc1cccc(C(F)(F)F)c1 (stereo not given) , field growth at 10 µM: 106

Record CCCCC(Cn1nc(Nc2ccccc2C)c(C(=O)OCC)c1N)OC(=O)Nc1cccc(C(F)(F)F)c1 (stereo not given) , field growth at 10 µM: 124

Record CCCCC(O)Cn1nc(Nc2ccc(C)cc2)c(C(=O)OCC)c1N (stereo not given) , field growth at 10 µM: 105

Record CCOC(=O)c1c(Nc2ccccc2)nn(CC(O)c2ccccc2)c1N (stereo not given) , field growth at 10 µM: 112
